Hey, just so you know, these numbers are from paper PMC10051811.

Assay: Micafungin concentrations in cerebrospinal fluid of infants with Candida meningitis (HPLC)
Format: in vivo
Settings: human, cerebrospinal fluid, iv, 10 mg/kg/day, Patient 2, dose 10 mg/kg/day iv; HPLC; read-out: CSF values after 1 h
Method: Micafungin plasma and CSF concentrations were measured 1 h before and 1, 2, and 8 h after the end of the infusion. Sampling overlapped with those required for the clinical monitoring of these critical children. […] Blood picked up was centrifuged at 3000× g, and the plasma residue was stored at 4 °C until analyzed within 6 h or frozen at −20 °C and analyzed within 7 days, as previously reported. Drug concentrations were measured via high-performance liquid chromatography (HPLC). […]
*1 amine or outer side, *2 acyl side, *3 side chain or, on linkers, in order; H or OH if unused. Where a SMILES comes first, the peptide text is derived from it. Bridges are numbered along the chain shown (N, C = ends). [ ]: non-standard residue; d: D form. The star is where a group is joined. hTyr(3S-OH,4S-OH,3'-OSO3H) = N[C@H](C(=O)O)[C@H](O)[C@@H](O)c1ccc(O)c(OS(=O)(=O)O)c1; Orn(4R-OH,5R-OH) = O=C([C@H](C[C@@H](O)[C@@H](O)N[*:3])N[*:1])[*:2]; Pro(3S-OH,4S-Me) = C[C@H]1CN[C@H](C(=O)O)[C@H]1O; X1 = CCCCCOc1ccc(-c2cc(-c3ccc(C(=O)*)cc3)no2)cc1; Gln(3R-OH) = NC(=O)C[C@@H](O)[C@H](N)C(=O)O; Hyp = O=C(O)[C@@H]1C[C@@H](O)CN1

molecule: CCCCCOc1ccc(-c2cc(-c3ccc(C(=O)N[C@H]4C[C@@H](O)[C@@H](O)NC(=O)[C@@H]5[C@@H](O)[C@@H](C)CN5C(=O)[C@H]([C@H](O)CC(N)=O)NC(=O)[C@H]([C@H](O)[C@@H](O)c5ccc(O)c(OS(=O)(=O)O)c5)NC(=O)[C@@H]5C[C@@H](O)CN5C(=O)[C@H]([C@@H](C)O)NC4=O)cc3)no2)cc1 [micafungin] (X1-[Orn(4R-OH,5R-OH)]T[Hyp][hTyr(3S-OH,4S-OH,3'-OSO3H)][Gln(3R-OH)][Pro(3S-OH,4S-Me)]; lactam 1-C)
uom: ng/mL
level at 1 h: 500

###

Assay: Micafungin plasma pharmacokinetics in neonates and young infants (HPLC)
Type: in vivo, human
Settings: human, iv, 10 mg/kg/day, Patient 1, dose 10 mg/kg/day iv, HPLC, read-out: Plasma values before infusion
*1 amine or outer side, *2 acyl side, *3 side chain or, on linkers, in order; H or OH if unused. Where a SMILES comes first, the peptide text is derived from it. Bridges are numbered along the chain shown (N, C = ends). [ ]: non-standard residue; d: D form. The star is where a group is joined. hTyr(3S-OH,4S-OH,3'-OSO3H) = N[C@H](C(=O)O)[C@H](O)[C@@H](O)c1ccc(O)c(OS(=O)(=O)O)c1; Orn(4R-OH,5R-OH) = O=C([C@H](C[C@@H](O)[C@@H](O)N[*:3])N[*:1])[*:2]; Pro(3S-OH,4S-Me) = C[C@H]1CN[C@H](C(=O)O)[C@H]1O; X1 = CCCCCOc1ccc(-c2cc(-c3ccc(C(=O)*)cc3)no2)cc1; Gln(3R-OH) = NC(=O)C[C@@H](O)[C@H](N)C(=O)O; Hyp = O=C(O)[C@@H]1C[C@@H](O)CN1

molecule: CCCCCOc1ccc(-c2cc(-c3ccc(C(=O)N[C@H]4C[C@@H](O)[C@@H](O)NC(=O)[C@@H]5[C@@H](O)[C@@H](C)CN5C(=O)[C@H]([C@H](O)CC(N)=O)NC(=O)[C@H]([C@H](O)[C@@H](O)c5ccc(O)c(OS(=O)(=O)O)c5)NC(=O)[C@@H]5C[C@@H](O)CN5C(=O)[C@H]([C@@H](C)O)NC4=O)cc3)no2)cc1 [micafungin] (X1-[Orn(4R-OH,5R-OH)]T[Hyp][hTyr(3S-OH,4S-OH,3'-OSO3H)][Gln(3R-OH)][Pro(3S-OH,4S-Me)]; lactam 1-C)
level at -1 h [ng/mL]: 3200
